system: CLZ3 (HCA2 human fibroblast dual HR-NHEJ reporter); assay: HR repair efficiency (tdTomato+ cells) relative to control (log10 fold); higher = more homologous recombination; settings: 5 µM; doxycycline 0.5 ug/mL;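 further: compound given one day before doxycycline, which switches on I-SceI endonuclease expression to create double-strand breaks within the integrated reporter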
Please go through the items and note down their HR repair efficiency (log10).
One number for each entry.

Reference set (2 entries):
| Compound | Measurement Type | Endpoint Value |
| --- | --- | --- |
| CC(C)=CCC[C@](C)(O[C@@H]1O[C@H](CO[C@@H]2O[C@H](CO)[C@@H](O)[C@H](O)[C@H]2O)[C@@H](O)[C@H](O)[C@H]1O)[C@H]1CC[C@]2(C)[C@@H]1[C@H](O)C[C@@H]1[C@@]3(C)CC[C@H](O[C@@H]4O[C@H](CO)[C@@H](O)[C@H](O)[C@H]4O)C(C)(C)[C@@H]3CC[C@]12C [Gypenoside Xvii] | HR repair efficiency (log10) | 0.00706 |
| CC1(C)CCC2(CO)C(=C3C=CC4C5(C)CCC(OC6OC(COC7OC(CO)C(O)C(O)C7O)C(OC7OC(CO)C(O)C(O)C7O)C(O)C6O)C(C)(CO)C5CCC4(C)C3(C)CC2O)C1 (stereo not drawn) [Clinopodiside A] | HR repair efficiency (log10) | 0.0428 |

Now for the compound whose HR repair efficiency (log10) we want.
Would you mind telling me what HR repair efficiency (log10) value was observed for NC(=O)NC1NC(=O)NC1=O (stereo not drawn) [Allantoin] ?
0.00746
